Numbers sourced from patent US20040121946A9.

System: HLA-DR molecules (DR1, DR4w4, DR7, DRB5*0101, DRB1*1501, DRB1*1101, DRB1*0802, DRB1*1302)
test-method-notes: DR supertype cross-reactive binding
Set-up: species or system human
particulars: Table XXXI
Parameter threshold = 5. Response is fulfilled when No. of DR Alleles Crossbound meets or exceeds it, else not fulfilled.

# check: No. of DR Alleles Crossbound of CC[C@H](C)[C@H](NC(=O)[C@H](CCCNC(=N)N)NC(=O)[C@H](CCSC)NC(=O)[C@@H](N)CCC(N)=O)C(=O)N[C@@H](CC(C)C)C(=O)N[C@@H](CCCCN)C(=O)N[C@@H](CCC(=O)O)C(=O)N[C@H](C(=O)N[C@@H](CCC(=O)O)C(=O)N[C@@H](CC(C)C)C(=O)N[C@@H](CCCNC(=N)N)C(=O)N[C@@H](CCCCN)C(=O)N[C@H](C(=O)N[C@@H](CCCCN)C(=O)N[C@H](C(=O)O)C(C)C)C(C)C)[C@@H](C)O is greater than or equal to 5 not fulfilled

Record CC[C@H](C)[C@H](NC(=O)[C@H](CCC(N)=O)NC(=O)[C@H](CCSC)NC(=O)[C@H](CS)NC(=O)[C@H](Cc1c[nH]c2ccccc12)NC(=O)[C@H](CC(N)=O)NC(=O)[C@H](CC(C)C)NC(=O)[C@@H](N)CC(C)C)C(=O)N[C@@H](C)C(=O)N[C@@H](CCCCN)C(=O)NCC(=O)N[C@@H](CCSC)C(=O)N[C@@H](CO)C(=O)N[C@@H](Cc1ccc(O)cc1)C(=O)N[C@@H](CC(C)C)C(=O)O ; criterion: No. of DR Alleles Crossbound no lower than 5. Met? fulfilled

Exam item: decide whether the reported No. of DR Alleles Crossbound for CC[C@H](C)[C@H](NC(=O)CNC(=O)[C@H](Cc1ccccc1)NC(=O)[C@@H](NC(=O)[C@@H](NC(=O)CNC(=O)[C@H](CC(C)C)NC(=O)[C@@H](N)C(C)C)C(C)C)C(C)C)C(=O)N[C@@H](CC(C)C)C(=O)N[C@H](C(=O)N[C@@H](CCCCN)C(=O)N[C@@H](CCCNC(=N)N)C(=O)N[C@@H](CCCNC(=N)N)C(=O)N[C@@H](CCC(N)=O)C(=O)N[C@@H](CCC(N)=O)C(=O)O)[C@@H](C)CC is at least 5. fulfilled

Dear colleague, could you confirm whether CC(C)C[C@H](NC(=O)[C@H](CC(=O)O)NC(=O)[C@H](CCCNC(=N)N)NC(=O)[C@H](Cc1c[nH]cn1)NC(=O)[C@@H](NC(=O)[C@H](CC(C)C)NC(=O)[C@H](CCCNC(=N)N)NC(=O)[C@@H](N)C(C)C)C(C)C)C(=O)N[C@@H](C)C(=O)N[C@@H](C)C(=O)N[C@@H](CCCNC(=N)N)C(=O)N[C@@H](CC(N)=O)C(=O)N[C@H](C(=O)N[C@@H](CC(C)C)C(=O)N[C@H](C(=O)O)C(C)C)C(C)C has No. of DR Alleles Crossbound at or above 5? not fulfilled

---

Tested on: HLA-DR molecules (DR1, DR4w4, DR7, DRB5*0101, DRB1*1501, DRB1*1101, DRB1*0802, DRB1*1302)
test-method-notes: DR supertype cross-reactive binding
Set-up: species or system human
particulars: number of DR1, DR4w4, DR7 bound, Table XXVIII
Give DR147 Cross-binding for every item shown.
Answers are plain numbers.

Use the examples below as a reference point.
# chemical-smiles, test-target, DR147 Cross-binding
measured = [
    ("CSCC[C@H](NC(=O)[C@H](CC(C)C)NC(=O)[C@H](CCC(N)=O)NC(=O)[C@@H](NC(=O)[C@@H](NC(=O)[C@H](CC(C)C)NC(=O)[C@H](CCC(N)=O)NC(=O)[C@@H](NC(=O)[C@@H](N)[C@@H](C)O)C(C)C)C(C)C)[C@@H](C)O)C(=O)N1CCC[C@H]1C(=O)N[C@@H](Cc1ccc(O)cc1)C(=O)NCC(=O)N[C@@H](CS)C(=O)N[C@@H](CC(C)C)C(=O)N[C@@H](CC(C)C)C(=O)O", "HLA-DR molecules (DR1, DR4w4, DR7, DRB5*0101, DRB1*1501, DRB1*1101, DRB1*0802, DRB1*1302)", 2),
    ("CC[C@H](C)[C@H](NC(=O)CNC(=O)[C@@H](NC(=O)[C@@H](NC(=O)[C@H](C)NC(=O)[C@H](CO)NC(=O)[C@@H](NC(=O)[C@@H](NC(=O)[C@H](CO)NC(=O)[C@@H](NC(=O)[C@H](CC(C)C)NC(=O)[C@@H]1CCCN1C(=O)[C@H](CO)NC(=O)[C@H](C)N)[C@@H](C)O)[C@@H](C)CC)[C@@H](C)CC)C(C)C)C(C)C)C(=O)N[C@@H](CC(C)C)C(=O)O", "HLA-DR molecules (DR1, DR4w4, DR7, DRB5*0101, DRB1*1501, DRB1*1101, DRB1*0802, DRB1*1302)", 2),
    ("CC[C@H](C)[C@H](NC(=O)[C@H](CCCNC(=N)N)NC(=O)CNC(=O)[C@H](CCCNC(=N)N)NC(=O)[C@@H](NC(=O)[C@@H](NC(=O)[C@H](CCC(N)=O)NC(=O)[C@H](CC(C)C)NC(=O)[C@H](CC(N)=O)NC(=O)[C@H](CCC(N)=O)NC(=O)[C@H](Cc1ccccc1)NC(=O)[C@@H](NC(=O)[C@H](CO)NC(=O)[C@@H](N)CC(C)C)C(C)C)C(C)C)[C@@H](C)CC)C(=O)N[C@@H](CC(C)C)C(=O)O", "HLA-DR molecules (DR1, DR4w4, DR7, DRB5*0101, DRB1*1501, DRB1*1101, DRB1*0802, DRB1*1302)", 3),
]

For each listed entry, give its DR147 Cross-binding.
1. CC(C)C[C@H](NC(=O)[C@H](CO)NC(=O)[C@H](C)NC(=O)[C@H](CC(N)=O)NC(=O)[C@@H](NC(=O)[C@@H]1CCCN1C(=O)[C@H](CC(C)C)NC(=O)[C@H](Cc1ccc(O)cc1)NC(=O)[C@@H](NC(=O)[C@H](CC(C)C)NC(=O)[C@H](CCC(=O)O)NC(=O)[C@H](CC(C)C)NC(=O)[C@@H](N)CC(N)=O)[C@@H](C)O)[C@@H](C)O)C(=O)N[C@@H](CO)C(=O)N[C@@H](Cc1ccccc1)C(=O)O
2. CC[C@H](C)[C@H](NC(=O)[C@H](CCSC)NC(=O)[C@H](Cc1c[nH]c2ccccc12)NC(=O)[C@H](CS)NC(=O)[C@H](CCCCN)NC(=O)[C@@H](NC(=O)[C@H](CCSC)NC(=O)[C@@H](NC(=O)[C@H](CCSC)NC(=O)[C@H](Cc1ccc(O)cc1)NC(=O)[C@@H](NC(=O)[C@@H](N)CC(=O)O)C(C)C)[C@@H](C)CC)C(C)C)C(=O)N[C@@H](CC(=O)O)C(=O)N[C@@H](CO)C(=O)N[C@@H](CCC(=O)O)C(=O)O
3. CC[C@H](C)[C@H](NC(=O)[C@H](CCCCN)NC(=O)[C@H](CCCCN)NC(=O)[C@@H](N)CS)C(=O)N[C@@H](Cc1ccccc1)C(=O)NCC(=O)N[C@@H](CO)C(=O)N[C@@H](CC(C)C)C(=O)N[C@@H](C)C(=O)N[C@@H](Cc1ccccc1)C(=O)N[C@@H](CC(C)C)C(=O)N1CCC[C@H]1C(=O)N[C@@H](CCC(=O)O)C(=O)N[C@@H](CO)C(=O)N[C@@H](Cc1ccccc1)C(=O)O
4. CC(C)C[C@H](NC(=O)[C@H](C)NC(=O)[C@H](Cc1ccc(O)cc1)NC(=O)[C@H](CC(N)=O)NC(=O)[C@H](CC(=O)O)NC(=O)[C@H](CCC(=O)O)NC(=O)[C@H](Cc1ccccc1)NC(=O)[C@H](CC(C)C)NC(=O)[C@H](CCC(N)=O)NC(=O)[C@@H](N)[C@@H](C)O)C(=O)N[C@@H](C)C(=O)N[C@H](C(=O)N[C@@H](CC(C)C)C(=O)N[C@@H](CC(=O)O)C(=O)N[C@@H](CC(N)=O)C(=O)O)C(C)C
5. CC[C@H](C)[C@H](N)C(=O)N[C@@H](CCCCN)C(=O)N[C@@H](Cc1c[nH]c2ccccc12)C(=O)N[C@@H](CCSC)C(=O)N[C@@H](C)C(=O)N[C@@H](CC(C)C)C(=O)N[C@@H](CCC(=O)O)C(=O)N[C@@H](CO)C(=O)N[C@H](C(=O)N[C@@H](CC(C)C)C(=O)N[C@@H](CCCNC(=N)N)C(=O)N[C@@H](CCCNC(=N)N)C(=O)N[C@@H](CCCNC(=N)N)C(=O)N[C@@H](Cc1ccccc1)C(=O)N[C@H](C(=O)O)[C@@H](C)O)[C@@H](C)CC

[3, 3, 2, 1, 1]
